Listing of recorded Kd by entry.
- target_under_test: T1, human TREM2 Fc fusion (entire TREM2 ECD; only one Fc arm fused to TREM2) (human, UniProt Q9NZC2 19-174)
- T1 construct: also called huTREM2-Fc; recombinant hTREM2
- T1 sequence: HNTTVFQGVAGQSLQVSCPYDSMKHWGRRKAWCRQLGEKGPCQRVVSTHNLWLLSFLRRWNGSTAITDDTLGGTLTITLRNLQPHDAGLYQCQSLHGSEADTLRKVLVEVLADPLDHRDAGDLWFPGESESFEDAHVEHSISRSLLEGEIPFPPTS
- assay_info: BLI, Fab, monovalent
Entry rule: numbers only, all in nM.

Query: Kd; subject: AL2p-62 (antibody, V domains shown, Fab and IgG formats under one id) VH: QVQLVQSGAEVKKPGASVKVSCKASGYAFSSQWMNWVRQAPGQRLEWIGRIYPGEGDTNYAGKFQGRVTITADTSASTAYMELSSLRSEDTAVYYCARLLRNQPGESYAMDYWGQGTLVTVSS VL: DVVMTQSPDSLAVSLGERATINCRSSQSLVHSNQYTYLHWYQQKPGQSPKLLIYKVSNRFSGVPDRFSGSGSGTDFTLTISSLQAEDVAVYYCSQSTRVPYTFGGGTKVEIK
21.1

Turning now to a further binder:
Query: Kd; subject: AL2p-5 (antibody, V domains shown, AL2p-h50 variant; Fab and IgG formats under one id; also called AL2-5) VH: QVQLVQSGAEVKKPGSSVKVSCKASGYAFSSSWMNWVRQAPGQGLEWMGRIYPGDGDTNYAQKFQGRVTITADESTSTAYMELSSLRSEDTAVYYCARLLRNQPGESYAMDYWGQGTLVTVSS VL: DVVMTQTPLSLSVTPGQPASISCRSSQSLVHSNRYTYLHWYLQKPGQSPQLLIYKVSNRFSGVPDRFSGSGSGTDFTLKISRVEAEDVGVYYCSQSTRVPYTFGQGTKLEIK
99.2

Origin of the recorded values: patent US20200317776A1
